Where do these numbers come from? They come from patent US20260193264A1.

Hi there, I'd appreciate the recorded Dmax for every entry that follows.
- System Name: HiBit-BRG1 fusion protein in stable HeLa cell line expressing HiBit-BRG1 and LgBit (Homo sapiens)
- Construct: expressed in transfected cells
- Sequence (P51532 whole entry, the tested form may be a part): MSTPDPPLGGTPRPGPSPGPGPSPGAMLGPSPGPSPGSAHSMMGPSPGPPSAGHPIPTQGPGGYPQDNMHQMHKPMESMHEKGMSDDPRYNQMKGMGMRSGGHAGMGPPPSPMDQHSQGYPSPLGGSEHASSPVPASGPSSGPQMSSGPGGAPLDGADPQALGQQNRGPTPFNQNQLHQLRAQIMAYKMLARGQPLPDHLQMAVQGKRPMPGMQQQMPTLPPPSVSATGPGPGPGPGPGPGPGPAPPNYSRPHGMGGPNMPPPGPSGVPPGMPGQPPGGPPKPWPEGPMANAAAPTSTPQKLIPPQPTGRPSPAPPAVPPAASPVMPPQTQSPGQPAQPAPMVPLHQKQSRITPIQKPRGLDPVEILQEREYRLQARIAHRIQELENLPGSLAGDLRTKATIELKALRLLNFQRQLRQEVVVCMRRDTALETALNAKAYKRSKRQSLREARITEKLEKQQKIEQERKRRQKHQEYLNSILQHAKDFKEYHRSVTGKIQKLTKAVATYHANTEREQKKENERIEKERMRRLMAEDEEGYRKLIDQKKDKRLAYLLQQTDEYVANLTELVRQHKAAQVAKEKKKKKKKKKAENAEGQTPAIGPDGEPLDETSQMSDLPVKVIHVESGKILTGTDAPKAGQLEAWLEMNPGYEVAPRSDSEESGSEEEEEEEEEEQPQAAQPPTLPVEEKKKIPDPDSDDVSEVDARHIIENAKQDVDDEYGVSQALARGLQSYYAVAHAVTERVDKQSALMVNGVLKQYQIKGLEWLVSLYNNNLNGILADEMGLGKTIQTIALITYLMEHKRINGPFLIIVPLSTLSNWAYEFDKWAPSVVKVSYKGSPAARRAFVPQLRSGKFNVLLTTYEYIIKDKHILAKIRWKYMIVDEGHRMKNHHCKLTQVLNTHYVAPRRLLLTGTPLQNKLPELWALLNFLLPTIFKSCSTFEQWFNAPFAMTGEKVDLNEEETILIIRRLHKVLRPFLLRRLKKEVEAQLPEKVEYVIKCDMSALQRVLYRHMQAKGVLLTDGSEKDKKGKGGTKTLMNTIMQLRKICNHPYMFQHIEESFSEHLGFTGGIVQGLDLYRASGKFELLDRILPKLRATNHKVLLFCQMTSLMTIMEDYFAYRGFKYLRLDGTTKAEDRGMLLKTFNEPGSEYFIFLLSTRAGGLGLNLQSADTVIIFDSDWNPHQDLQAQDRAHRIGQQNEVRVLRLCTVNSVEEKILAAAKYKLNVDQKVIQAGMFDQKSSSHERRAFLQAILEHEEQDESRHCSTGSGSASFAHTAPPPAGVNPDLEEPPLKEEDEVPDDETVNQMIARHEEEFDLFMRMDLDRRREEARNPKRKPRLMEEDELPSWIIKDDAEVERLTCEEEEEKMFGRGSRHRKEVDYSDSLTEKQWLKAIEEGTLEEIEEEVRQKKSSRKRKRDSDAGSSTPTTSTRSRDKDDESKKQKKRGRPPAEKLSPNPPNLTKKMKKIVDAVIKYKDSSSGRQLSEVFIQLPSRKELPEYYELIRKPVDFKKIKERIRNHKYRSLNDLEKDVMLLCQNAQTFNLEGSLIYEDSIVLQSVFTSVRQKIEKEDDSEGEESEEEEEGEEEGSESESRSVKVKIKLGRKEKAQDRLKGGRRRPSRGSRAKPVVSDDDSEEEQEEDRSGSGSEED
- Protocol Description: HiBiT-BRG1 cell-based degradation assay (Nano-Glo HiBiT, 24 h)
- Protocol Conditions: HeLa HiBit-BRG1/LgBit cells, top dose 30 μM, read-out: BRG1 HiBit Degradation Maximum (%)

# example entries with known answers
| Molecule | Dmax |
| --- | --- |
| Cc1nc(N2CCC(c3ccc4cc(-c5ccccc5O)nnc4c3)CC2)ccc1-c1cc([C@H](C(=O)N2C[C@H](O)C[C@H]2C(=O)N[C@@H](C)c2ccc(-c3scnc3C)cc2)C(C)C)on1 | > 75% |
| Cc1ncsc1-c1ccc([C@H](C)NC(=O)[C@@H]2C[C@@H](O)CN2C(=O)[C@H](C(C)C)n2cc(C3CC4(CC(c5ccc6nnc(-c7ccccc7O)cc6c5)C4)C3)nn2)cc1 (some centres unmarked) | > 75% |
| Cc1ncsc1-c1ccc([C@H](C)NC(=O)[C@@H]2C[C@@H](O)CN2C(=O)[C@@H](c2cc(N3CC4(C3)CN(c3cc5cc(-c6ccccc6O)nnc5cc3C(F)F)C4)no2)C(C)C)cc1 | > 75% |
| Cc1ncsc1-c1ccc([C@H](C)NC(=O)[C@@H]2C[C@@H](O)CN2C(=O)[C@H](c2cc(-c3cnc(N4CC(c5cc(Cl)c6cc(-c7ccccc7O)nnc6c5)C4)nc3)no2)C(C)C)cc1 | < 50% |

--- query ---
Consider Cc1ncsc1-c1ccc([C@H](C)NC(=O)[C@@H]2C[C@@H](O)CN2C(=O)[C@H](C(C)C)n2cc(C3CC4(C3)CN(c3ccc5cc(-c6ccccc6O)nnc5c3)C4)nn2)cc1 . Its measured Dmax is > 75%
